// data source = patent US20250243282A1

testedTarget: Recombinant human Gal3 (rhGal3) (TrueBinding, #QC200361) (human, UniProt P17931 2-250); note: test concentration or dose not given here
assayExplanation: cell-based or functional assay
recordedEndpoint: % inhibition of CD62L shedding (%)
Numbers only, in %.

binder: 846.2B11 (antibody, human IgG4 S228P, kappa, V domains shown) VH: QVQLQQSGPELVRPGALVKISCKASGYTFTSYDINWVKQRPGQGLEWIGWIYPGDGSTKYNEKFKGKATLTADKSSSTAYMQLSSLTSENSAVYFCAREAASNAMDYWGQGTSVTVSS VL: DIVLTQSPASLGVSLGQRATISCRASKSVSTSGYSYMHWYQQKPGQPPKLLIYLASILESGVPARFSGSGSGTDFTLNIHPVEEEDAAIYYCQHSRELPLTFGAGTKLELKR
% inhibition of CD62L shedding / %: 8.2

Q: Could you share which % inhibition of CD62L shedding value was measured for TB001 (antibody, human IgG4 S228P, kappa, V domains shown) VH: QVQLVQSGSELKKPGASVKVSCKASGYTFTNYGMNWVRQAPGQGLKWMGWINTNTGEPTYVEEFTGRFVFSLETSVSTAYLQISSLKAEDTAVYFCAPYDNFFAYWGQGTTVTVSS VL: DIVLTQSPLSLPVTPGEPASISCRSSKSLLYKDGKTYLNWFLQKPGQSPQLLIYLMSTHASGVPDRFSGSGSGTDFTLKISRVEAEDVGVYYCQQLVDYPLTFGGGTKLEIKR ?
Result: 87.2
